B1: Chromodomain-helicase-DNA-binding protein 4, residues 444 to 496; numbered along this chain, Q14839 (parent)
chain: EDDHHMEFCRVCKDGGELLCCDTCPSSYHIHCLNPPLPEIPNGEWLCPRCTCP

Variants of: B1
methodSummary: abundance fitness (aPCA) (normalised: wild type 0, dead -1); higher = more abundant; growth selection in yeast, the domain comes from the species named
runConditions: Homo sapiens
Entries and their abundance fitness values follow.
observationType: abundance fitness

1. E39D :: -0.292
2. L19H :: -0.189
3. P35H :: -0.386
4. P35T :: -0.198
5. T51R :: -0.073
6. C50K :: -0.58
7. C21L :: -1.07
8. E7M :: -0.433
9. G16S :: -0.279
10. C50G :: -0.727
11. T23F :: -0.221
12. T51F :: 0.048
13. V11G :: -0.135
14. C12A :: -0.74
15. S26N :: -0.073
16. G15C :: -0.508

Source: the Human Domainome abundance scans (Beltran et al. 2025)
